# target.of.assay: Estrogen receptor (Homo sapiens) (UniProt P03372)
# Sequence (P03372 whole entry, looked up): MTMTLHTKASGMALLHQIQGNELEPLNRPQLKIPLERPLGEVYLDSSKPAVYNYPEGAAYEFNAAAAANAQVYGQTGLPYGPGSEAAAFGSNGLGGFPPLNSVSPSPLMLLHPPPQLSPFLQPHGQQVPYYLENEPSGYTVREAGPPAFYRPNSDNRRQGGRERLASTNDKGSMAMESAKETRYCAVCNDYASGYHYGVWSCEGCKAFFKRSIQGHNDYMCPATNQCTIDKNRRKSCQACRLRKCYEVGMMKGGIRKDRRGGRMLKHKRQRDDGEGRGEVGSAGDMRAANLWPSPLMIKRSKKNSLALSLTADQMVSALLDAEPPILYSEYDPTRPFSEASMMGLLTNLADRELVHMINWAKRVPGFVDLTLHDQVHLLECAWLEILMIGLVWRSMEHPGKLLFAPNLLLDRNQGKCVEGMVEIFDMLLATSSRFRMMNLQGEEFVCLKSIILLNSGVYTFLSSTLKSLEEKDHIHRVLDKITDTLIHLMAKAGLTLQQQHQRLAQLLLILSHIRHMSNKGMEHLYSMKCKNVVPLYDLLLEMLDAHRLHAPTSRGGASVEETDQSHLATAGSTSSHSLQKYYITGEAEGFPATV
# assay.comment: OT_ERa_GFPERaERE_0120: Odyssey Thera (OT) 2-hour HeLa Transcription Induction Assay for Estrogen Receptor (AID 2283382)
Calls of active or inactive are those of the source. How the source made its calls: active means hit-call score of the fitted dose curve at least 0.9, where 1 is the maximum; inconclusive means response in the unintended direction; inactive means score below 0.9.
parameter.measured: outcome

>>> assay_result("CC(C)CCCCCCc1ccc(OCCOCCO)cc1")
"inactive"
>>> assay_result("OCC(O)c1ccccc1 (centres undefined)")
"inactive"
>>> assay_result("CC(C)NCC(O)COc1ccc(CC(N)=O)cc1 (centres undefined)")
"inactive"
>>> assay_result("CCCCCCCCCCCC(=O)OCC(O)CO (centres undefined)")
"inactive"

----------
# assay.comment: ATG_SREBP_CIS: Attagene CIS-FACTORIAL HepG2 Assay for human Sterol Regulatory Element Binding (SREBP) (AID 2282962)
# condition.label: HepG2 Attagene cis-factorial SREBP reporter, mRNA; actives raise or lower the signal
# Procedure: ATG_CIS is a cell-based, multiplexed-readout assay that uses HepG2, a human liver cell line, with measurements taken at 24 hours after chemical dosing in a 24-well plate.ATG_SREBP_CIS is one of 52 assay component(s) measured or calculated from the ATG_CIS assay. […] This assay endpoint, ATG_SREBP_CIS, was analyzed with bidirectional fitting relative to DMSO as the negative control and baseline of activity. […]
The source made the active and inactive calls. The calls were made as follows: active = hit-call score of the fitted dose curve at least 0.9, where 1 is the maximum; inactive = score below 0.9.
Log the outcome using a class from Yes for active, No for inactive

Example results:
>>> answer_label("Cc1ncc[nH]1")
"No"
>>> answer_label("CCCCSCCCC")
"No"
>>> answer_label("COC(=O)c1ccc(C)cc1C1=NC(C)(C(C)C)C(=O)N1 (centres undefined) (tested in a mixture with another compound)")
"No"
>>> answer_label("CC(C)Nc1nc(N)nc(Cl)n1")
"No"
>>> answer_label("C=C(C)C(=O)OCC(CC)(COC(=O)C(=C)C)COC(=O)C(=C)C")
"No"
>>> answer_label("C[Si](C)(C)O[Si](C)(C)C")
"No"
>>> answer_label("CCOC(=O)CN")
"No"
>>> answer_label("CC1(C)C2=CCCC(C)(C)[C@]23CC[C@H]1C3")
"Yes"
>>> answer_label("Oc1c(Cl)cc(Cl)c(Cl)c1Cc1c(O)c(Cl)cc(Cl)c1Cl")
"No"
>>> answer_label("CC(C=O)Cc1ccc(C(C)(C)C)cc1 (centres undefined)")
"No"

How was `CC(C)(C)c1ccc(C(=O)O)cc1` classified in this test?
No

How was `CCCCN(CCCC)C(=O)N(CCCC)CCCC` classified in this test?
Yes

How was `COc1cc(C(C)C)ccc1C` classified in this test?
No

How was `CCCC(C)=O` classified in this test?
No

How was `FC(F)(F)COCC(F)(F)F` classified in this test?
No

----------
# assay.comment: ATG_ISRE_CIS: Attagene CIS-FACTORIAL HepG2 Assay for human Interferon Regulatory Factor 1 (IRF1) binding to an Interferon-Stimulated Response Element (ISRE) (AID 2282948)
# condition.label: HepG2 ISRE cis-reporter (Attagene), mRNA transcription readout; actives raise or lower the signal
The source made the active and inactive calls. The calls were made as follows: active = hit-call score of the fitted dose curve at least 0.9, where 1 is the maximum; inactive = score below 0.9.
Log the outcome using a class from class 1 for active, class 0 for inactive

>>> answer_label("OCCc1ccccc1")
"class 0"
>>> answer_label("O=C(O)CCCCCCCCCCCC(=O)O")
"class 0"
>>> answer_label("CCC(Cl)C(Cl)C(Cl)CC(Cl)C(Cl)C(C)Cl (stereo not given)")
"class 0"

How was `CCCCCCCCCCCCS(=O)(=O)Cl` classified in this test?
class 0

How was `O=P(O)(O)O` classified in this test?
class 0

How was C1=CC2C3C=CC(C3)C2C1 (stereo not given) classified in this test?
class 0

How was `CC(C)Nc1nc(N)nc(Cl)n1` classified in this test?
class 0

How was `COc1ccc(COC(C)=O)cc1` classified in this test?
class 0

How was `C=C(C)[C@@H]1CC=C(C)C(=O)C1` classified in this test?
class 0

How was `O=C1CCCC=CCCCCCCCCCC1` classified in this test?
class 1

How was O=C(Nc1ccc([N+](=O)[O-])cc1)Nc1ccc([N+](=O)[O-])cc1 (tested in a mixture with another compound) classified in this test?
class 0

How was CC(CN=Cc1ccccc1O)N=Cc1ccccc1O (stereo not given) classified in this test?
class 0

How was Clc1ccc(C(c2ccccc2Cl)C(Cl)Cl)cc1 (stereo not given) classified in this test?
class 1

How was `Nc1ccc(Cl)c([N+](=O)[O-])c1` classified in this test?
class 0

How was `CC/C=C\CC/C=C/CO` classified in this test?
class 0

How was `Clc1cc(Cl)c(-c2c(Cl)c(Cl)cc(Cl)c2Cl)cc1Cl` classified in this test?
class 0

How was CCCC1O[C@@H]2C[C@H]3[C@@H]4CCC5=CC(=O)C=C[C@]5(C)[C@H]4[C@@H](O)C[C@]3(C)[C@]2(C(=O)CO)O1 (stereo not given in full) classified in this test?
class 1

How was `CCCOCCO` classified in this test?
class 0
